molecular target: CAT-1 (carnitine acyltransferase 1) (Rattus norvegicus); construct: This preparation is used as the isolated mitochondrial preparation; from tissue; host or cells: rat heart (atria removed), isolated mitochondria; test: Primary Screen--Inhibition of CAT-1 in isolated mitochondria; assay type: biochemical; settings: rat heart mitochondria, reduction of palmitoyl carnitine formation by 50%; read-out: Primary Screen IC50
Sequence (Q63704 whole entry): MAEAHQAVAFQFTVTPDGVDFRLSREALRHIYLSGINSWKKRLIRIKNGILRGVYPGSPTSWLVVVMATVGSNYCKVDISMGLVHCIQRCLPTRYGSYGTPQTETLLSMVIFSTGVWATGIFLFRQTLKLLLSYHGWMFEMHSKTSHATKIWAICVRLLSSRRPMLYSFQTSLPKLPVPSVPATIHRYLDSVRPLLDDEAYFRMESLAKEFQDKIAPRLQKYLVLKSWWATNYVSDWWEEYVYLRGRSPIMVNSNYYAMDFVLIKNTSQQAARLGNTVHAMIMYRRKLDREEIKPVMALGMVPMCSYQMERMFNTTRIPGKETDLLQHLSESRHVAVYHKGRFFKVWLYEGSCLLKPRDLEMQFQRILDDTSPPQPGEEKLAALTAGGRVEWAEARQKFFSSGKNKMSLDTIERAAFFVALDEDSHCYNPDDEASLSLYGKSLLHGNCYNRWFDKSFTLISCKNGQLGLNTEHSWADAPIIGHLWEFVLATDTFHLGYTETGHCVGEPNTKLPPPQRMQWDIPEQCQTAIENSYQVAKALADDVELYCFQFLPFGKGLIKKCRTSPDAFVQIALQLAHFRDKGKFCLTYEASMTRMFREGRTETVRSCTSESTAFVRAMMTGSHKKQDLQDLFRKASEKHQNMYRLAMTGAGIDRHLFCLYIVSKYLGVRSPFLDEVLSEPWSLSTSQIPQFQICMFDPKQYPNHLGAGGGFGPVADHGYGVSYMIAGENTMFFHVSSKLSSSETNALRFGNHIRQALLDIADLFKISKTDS
pIC50: −log10 of the molar value.
attribute_measured: pIC50

Answered cases to consult:
compound | pIC50
O=C(O)C(=O)c1ccc(OCCOc2cc3ccccc3cc2O)cc1 [Example 121] | 6.52
CCO/N=C(/C(=O)O)c1ccc(OCCOc2ccc3ccccc3c2)s1 [Example 309] | 7.70

I: O=C(O)C(=O)c1ccc(NCCOc2ccc3ccccc3c2)cc1 [Example 168]
II: Cc1ccc(OCCOc2ccc(C(=O)C(=O)O)cc2)cc1 [Example 49]
Incoming: Sorting ascending by pIC50, which comes first: I or II ? Output the label that corresponds to your choice.
Outgoing: II
(II: 5.40, I: 6.15)

a: O=C(O)/C(=N/OCc1ccccc1)c1ccc(OCCOc2ccc3ccccc3c2)s1 [Example 315]
b: COc1ccc(OCCOc2ccc(C(=O)C(=O)O)cc2)cc1OC [Example 63]
Incoming: Sorting ascending by pIC50, which comes first: a or b ? Output the label that corresponds to your choice.
Outgoing: b
(b: 5.52, a: 6.85)
